Hello, the source for this data is patent US5399543A, in case you need it.

Some compounds, each annotated with its measured activity at 300 g/ha.
Tested on: Corn
protocol_details: Postemergence herbicidal activity, corn
Format: in vivo, Zea mays var. Agway 425X
experimental_setup: Zea mays, post-emergence, 0.3 kg/ha, after 17-21 days, read-out: Postemergence herbicidal activity (% control), Corn
property_name: activity at 300 g/ha (%)

1. COc1ccccc1COc1ccc(-n2c(=O)cc(C(F)(F)F)n(C)c2=O)cc1 [Compound 40] | 50
2. COc1cccc(COc2ccc(-n3c(=O)cc(C(F)(F)F)n(C)c3=O)cc2)c1 [Compound 8] | 85
3. Cn1c(C(F)(F)F)cc(=O)n(-c2ccc(OCc3c(Cl)cccc3Cl)cc2)c1=O [Compound 7] | 0
4. Cn1c(C(F)(F)F)cc(=O)n(-c2ccc(OCc3cccc(Cl)c3)cc2)c1=O [Compound 3] | 60
5. Cc1cc(OCc2ccccc2)ccc1-n1c(=O)cc(C(F)(F)F)n(C)c1=O [Compound 12] | 0
6. Cn1c(C(F)(F)F)cc(=O)n(-c2ccc(OCc3ccc(Cl)c(Cl)c3)cc2)c1=O [Compound 41] | 25
7. Cn1c(C(F)(F)F)cc(=O)n(-c2ccc(OCc3ccccc3Cl)cc2)c1=O [Compound 2] | 45
8. Cc1cc(OCc2ccc(Cl)cc2)ccc1-n1c(=O)cc(C(F)(F)F)n(C)c1=O [Compound 13] | 40
9. Cn1c(C(F)(F)F)cc(=O)n(-c2ccc(OCc3ccc(Cl)cc3)cc2)c1=O [Compound 4] | 50
10. Cn1c(C(F)(F)F)cc(=O)n(-c2ccc(OCc3ccccc3)cc2F)c1=O [Compound 9] | 70
11. Cn1c(C(F)(F)F)cc(=O)n(-c2ccc(OCc3ccc(F)cc3)cc2F)c1=O [Compound 11] | 70
12. Cn1c(C(F)(F)F)cc(=O)n(-c2ccc(OCc3cccc(Cl)c3Cl)cc2)c1=O [Compound 42] | 30
13. Cn1c(C(F)(F)F)cc(=O)n(-c2ccc(OCc3ccc(Cl)cc3)cc2F)c1=O [Compound 10] | 50
14. Cn1c(C(F)(F)F)cc(=O)n(-c2ccc(OCc3ccc(Cl)cc3Cl)cc2)c1=O [Compound 6] | 20
15. Cn1c(C(F)(F)F)cc(=O)n(-c2ccc(OCc3ccc(C(F)(F)F)cc3)cc2)c1=O [Compound 22] | 20
16. Cn1c(C(F)(F)F)cc(=O)n(-c2ccc(OCc3cc(Cl)cc(Cl)c3)cc2)c1=O [Compound 43] | 30
17. Cn1c(C(F)(F)F)cc(=O)n(-c2ccc(OCc3ccccc3)cc2)c1=O [Compound 1] | 30
18. COc1ccc(COc2ccc(-n3c(=O)cc(C(F)(F)F)n(C)c3=O)cc2)cc1 [Compound 44] | 30
19. Cn1c(C(F)(F)F)cc(=O)n(-c2ccc(OCc3ccc(F)cc3)cc2)c1=O [Compound 5] | 75
